Cited source: patent US20200338209A1

# Test system: cyno B7-H3
# Sequence (as listed by the source): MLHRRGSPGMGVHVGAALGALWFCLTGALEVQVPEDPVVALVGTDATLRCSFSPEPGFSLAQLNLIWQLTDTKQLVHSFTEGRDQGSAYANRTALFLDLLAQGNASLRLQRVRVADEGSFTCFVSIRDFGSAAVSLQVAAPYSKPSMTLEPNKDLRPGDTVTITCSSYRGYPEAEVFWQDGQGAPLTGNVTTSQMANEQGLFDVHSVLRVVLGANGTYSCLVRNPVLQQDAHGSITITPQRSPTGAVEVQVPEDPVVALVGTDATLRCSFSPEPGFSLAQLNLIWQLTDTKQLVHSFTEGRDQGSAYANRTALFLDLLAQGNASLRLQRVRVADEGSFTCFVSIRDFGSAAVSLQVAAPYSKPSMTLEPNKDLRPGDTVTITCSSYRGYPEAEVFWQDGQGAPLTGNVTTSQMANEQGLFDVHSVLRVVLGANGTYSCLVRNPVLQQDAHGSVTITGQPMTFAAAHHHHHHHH
# protocol: Biacore T200 SPR binding kinetics, mAb capture, soluble ECD of cyno B7-H3
# Parameters: species or system cynomolgus monkey
# condition.info: 1:1 binding model
Each entry below carries its reported ka (1/Ms) cynoB7-H3.
# value in M⁻¹ s⁻¹; strip the unit string

What value of ka (1/Ms) cynoB7-H3 has been reported for the following molecule? Ab2: mouse hybridoma derived anti-B7-H3 monoclonal antibodies (mAbs) (antibody, V domains shown) VH: QVQLQQPGAELVKPGASVKLSCKASGYTFTSYWMHWVKQRPGQGLEWIGMIHPDSGTTNYNEKFRSKATLTVDKSSSTAYMQLSSLTSEDSAVYYCAVYYGSTYWYFDVWGTGTTVTVSS VL: DVVMTQTPLSLPVSLGDQAYISCRSSQSLVHINGNTYLHWYRQKPGQSPKLLIYKVSNRFSGVPDRFSGSGSGTDFTLKISRVEAEDLGVYFCSQSTHFPFTFGSGTKLEIK
230000

Entry under review: Ab10: mouse hybridoma derived anti-B7-H3 monoclonal antibodies (mAbs) (antibody, V domains shown) VH: DVQLQESGPGLVKPSQSLSLTCTVTGYSITSDYAWNWIRQFPGNRLEWMGHINYSGITNYNPSLKSRISITRDTSKNQFFLQLYSVTTEDTATYFCARRSLFYYYGSSLYAMDYWGQGTSVTVSS VL: DVVMTQSPFSLPVSLGDQASISCRSSQSLVHSNGNTYLHWYLQKPGQSPKLLIYKVSNRFSGVPDRFSGSGSGTDFTLKISRVEAEDLGVYFCSQSTHVPWTFGGGTKLEIK . Reported ka (1/Ms) cynoB7-H3?
200000

Quick one: ka (1/Ms) cynoB7-H3 of Ab17: mouse hybridoma derived anti-B7-H3 monoclonal antibodies (mAbs) (antibody, V domains shown) VH: EVKLVESGGGLVQPGGSLKLSCAASGFTFSSYIMSWVRQTPEKRLEWVASIVSSNITYYPDSMKGRFTISRDNARNILYLQMSSLKSEDTAMYYCARSGTRAWFAYWGQGTLVTVSA VL: DIVLTQSPASLAVSLGQRATISCRASKSVSTSAYSYMHWYQQKPGQPPKLLIYLASNLESGVPARFSGSGSGTDFTLNIHPVEEEDAATYYCQHSRELPYTFGGGTKLEIK ?
510000

Further cases:
Which ka (1/Ms) cynoB7-H3 reading was recorded for the molecule Ab14: mouse hybridoma derived anti-B7-H3 monoclonal antibodies (mAbs) (antibody, V domains shown) VH: EVKLVESGGGLVKPGGSLKLSCAASGFTFSSYGMSWVRQTPEKRLEWVATISGGGTNTYYPDSVEGRFTISRDNAKNFLYLQMSSLRSEDTALYYCARHYGSQTMDYWGQGTSVTVSS VL: DIQMTQSPASLSASVGETVTITCRTSGNIHNYLTWYQQKQGKSPQLLVYNAKTLADGVPSRFSGSGSGTQFSLKINSLQPEDFGSYYCQHFWSIMWTFGGGTKLEIK ?
690000
